Measured Relative (CC50)/(collagen IC50) by item
tested on: WI‐26 VA4 cells; test: Collagen ELISA (secreted pro‐collagen I); details: relative to HF, Fig 5E
REPORTED PROPERTY: Relative (CC50)/(collagen IC50)

> print(dat)
                  compound.structure.string                reported.property  observed
1  Cc1c(Cl)ccc2c1ncn2CC(=O)C[C@H]1NCCC[C@@H]1O  Relative (CC50)/(collagen IC50)      1.61
2  O=C(C[C@H]1NCCC[C@@H]1O)Cn1cnc2ccc(-c3cccc(F)c3)cc21  Relative (CC50)/(collagen IC50)      2.11
3  Cc1c(Br)cnc2c1ncn2CC(=O)C[C@H]1NCCC[C@@H]1O  Relative (CC50)/(collagen IC50)      1.63
4  O[C@H]1CCCN[C@@H]1CCCn1cnc2c(Cl)c(Cl)ccc21  Relative (CC50)/(collagen IC50)      3.01

----------
tested on: WI‐26 VA4 cells; assay: Puromycin incorporation assay; type: cell-based, human; details: Homo sapiens, WI26VA4, read-out: Puromycin, IC50 (best-fit value)
pIC50: −log10 of the molar value.
REPORTED PROPERTY: pIC50

> print(dat)
                                   compound   assayed.system  observed
1  O[C@H]1CCCN[C@@H]1CCCn1cnc2c(Cl)c(Cl)ccc21 [DWN12088]  WI‐26 VA4 cells      4.25

----------
Test system: WI‐26 VA4 cells
Assay: Puromycin incorporation assay
Type: cell-based, human
Conditions: log(inhibitor) vs. response, variable slope (four parameters)
Procedure: After being rinsed with cold PBS twice, the cells were collected and resuspended in 200 μl of the carbonate bicarbonate buffer (Sigma Aldrich, C3041‐50CAP) with protease inhibitor. […] After protein quantification using a Pierce™ BCA Protein Assay Kit (Thermo Fisher Scientific, 23225), 400 ng of the proteins was coated to ELISA plates for 18 h at 4°C. […] The amount of puromycin incorporated in proteins was determined by measuring the absorbance at 450 nm (reference wavelength at 620 nm). […]
REPORTED PROPERTY: Puromycin, HillSlope (best-fit value)

> print(dat)
                                   compound  observed
1  Cc1c(Cl)ccc2c1ncn2CC(=O)C[C@H]1NCCC[C@@H]1O [DWN11748]    -2.365
2  O=C(C[C@H]1NCCC[C@@H]1O)Cn1cnc2ccc(-c3cccc(F)c3)cc21 [DWN11251]    -1.784
3  O=C(CC1NCCCC1O)Cn1cnc2cc(Br)c(Cl)cc2c1=O (centres unmarked) [HF, Halofuginone, reference compound]    -2.795
4  Cc1c(Br)cnc2c1ncn2CC(=O)C[C@H]1NCCC[C@@H]1O [DWN11761]    -3.124
5  O[C@H]1CCCN[C@@H]1CCCn1cnc2c(Cl)c(Cl)ccc21 [DWN12088]    -1.616

----------
assay: Cytotoxicity assay in cells stably expressing PARS1 mutant; settings: human, Cytotoxicity, % of control, average, WI-26 VA4 Flag-PARS1 FA/EA/RL; 30000 nM
REPORTED PROPERTY: activity at 72 h, 30 µM (%)

> print(dat)
                  compound.structure.string        reported.property  unit.descriptor  observed
1  O[C@H]1CCCN[C@@H]1CCCn1cnc2c(Cl)c(Cl)ccc21  activity at 72 h, 30 µM                %      19.5
